assay remarks: growth inhibition of RCMB18 medulloblastoma cells, cell-based, cisplatin and BGB IC40 combos (AID 1671462);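 further: cells exposed to compound for four days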
condition context: single agent, at 5 µM, stronger effect = higher value
Give measured inhibition for each item. Keep answers brief.
Remember to put the unit after the number in your answer.

Worked examples follow.
compound | assay readout | data value
Nc1ncn([C@H]2C[C@H](O)[C@@H](CO)O2)c(=O)n1 | inhibition | 7.32%
Nc1ccc2cc3ccc(N)cc3nc2c1 | inhibition | 73.5%
Cc1ccc2nc(N)[nH]c(=O)c2c1Sc1ccncc1 | inhibition | 12.6%
CCOC(=O)Nc1ccc(NCc2ccc(F)cc2)nc1N | inhibition | -7.25%
CNC1CCCN(c2c(F)cc3c(=O)c(C(=O)O)cn(C4CC4)c3c2OC)C1 (stereo unspecified) | inhibition | -28%

# lookup: inhibition of `O=C(CCCCCCC(=O)Nc1ccccc1)NO`
78.3%
